Origin of measurements: patent US4401660A

System: Staphylococcus epidermidis EPI1
Assay Info: MIC, standard agar-dilution assay (Table II)
Assay type: cell-based
Set-up: unit not given here
Measured Parameter: minimal inhibitory concentration (MIC)
Please reply with the number alone, leaving off any unit.

Answered cases to consult:
Compound | minimal inhibitory concentration (MIC)
CCC1OC(=O)CC(O)C(C)C(OC2OC(C)C(O)C(N(C)C)C2O)C(CC=O)CC(C)C(=O)C=CC(C)=CC1COP(=O)(Oc1ccccc1)Oc1ccccc1 (centres unmarked) [Compound 48, 23-O-(Diphenylphosphoryl)-OMT] | 0.25
CCC1OC(=O)CC(O)C(C)C(OC2OC(C)C(OC(C)=O)C(N(C)C)C2OC(C)=O)C(CC=O)CC(C)C(=O)C=CC(C)=CC1COC(=O)Cc1cccnc1 (centres unmarked) [Compound 43] | 0.25
CCC1OC(=O)CC(O)C(C)C(OC2OC(C)C(O)C(N(C)C)C2O)C(CC=O)CC(C)C(=O)C=CC(C)=CC1COC(=O)Cc1ccc([N+](=O)[O-])cc1 (centres unmarked) [Compound 65] | 0.125
CCC1OC(=O)CC(O)C(C)C(OC2OC(C)C(O)C(N(C)C)C2OC(C)=O)C(CC=O)CC(C)C(=O)C=CC(C)=CC1COC(C)=O (centres unmarked) [Compound 9] | 0.25

Okay, next one:
# input Need minimal inhibitory concentration (MIC), item CCC1OC(=O)CC(O)C(C)C(OC2OC(C)C(O)C(N(C)C)C2OC(C)=O)C(CC=O)CC(C)C(=O)C=CC(C)=CC1COC(=O)C(C)(C)C (centres unmarked) [Compound 67]
# output 0.25

---

Tested on: Streptococcus pyogenes C203
Assay Info: MIC, standard agar-dilution assay (Table II)
Assay type: cell-based
Design: unit not given here
Measured Parameter: minimal inhibitory concentration (MIC)
// print number alone

Compound | Measured Parameter | Quantitative Readout
CCC1OC(=O)CC(O)C(C)C(OC2OC(C)C(O)C(N(C)C)C2O)C(CC=O)CC(C)C(=O)C=CC(C)=CC1COC(=O)CCc1ccccc1 (centres unmarked) [Compound 54] | minimal inhibitory concentration (MIC) | 0.06
CCC1OC(=O)CC(O)C(C)C(OC2OC(C)C(OC(C)=O)C(N(C)C)C2OC(C)=O)C(CC=O)CC(C)C(=O)C=CC(C)=CC1COC(=O)COc1ccccc1 (centres unmarked) [Compound 34, 2',4'-Di-O-acetyl-23-O-phenoxyacetyl-OMT] | minimal inhibitory concentration (MIC) | 0.06
CCC(=O)OCC1C=C(C)C=CC(=O)C(C)CC(CC=O)C(OC2OC(C)C(O)C(N(C)C)C2OC(=O)CC)C(C)C(O)CC(=O)OC1CC (centres unmarked) [Compound 10, 2',23-Di-O-Propionyl-OMT] | minimal inhibitory concentration (MIC) | 0.25

# input minimal inhibitory concentration (MIC) for CCC1OC(=O)CC(O)C(C)C(OC2OC(C)C(OC(C)=O)C(N(C)C)C2OC(C)=O)C(CC=O)CC(C)C(=O)C=CC(C)=CC1COC(=O)Cc1ccccc1 (centres unmarked) [Compound 27, 2',4'-Di-O-acetyl-23-O-phenylacetyl-OMT] ?
# output 0.06

# input Reported minimal inhibitory concentration (MIC) for CCC1OC(=O)CC(O)C(C)C(OC2OC(C)C(O)C(N(C)C)C2OC(C)=O)C(CC=O)CC(C)C(=O)C=CC(C)=CC1COC(=O)C12CC3CC(CC(C3)C1)C2 (centres unmarked) [Compound 69] : what is it?
# output 1

---

Tested on: Pasteurella multocida 40G
Assay Info: MIC, broth-dilution microtiter test (Table III)
Format: cell-based
Design: unit not given here
Measured Parameter: minimal inhibitory concentration (MIC)
Lab note: jot down the number only; don't add units.

Molecule | Measured Parameter | Quantitative Readout
CCC1OC(=O)CC(O)C(C)C(OC2OC(C)C(O)C(N(C)C)C2OC(C)=O)C(CC=O)CC(C)C(=O)C=CC(C)=CC1COC(=O)OC (stereo not drawn) [Compound 73] | minimal inhibitory concentration (MIC) | 6.25
CCC1OC(=O)CC(O)C(C)C(OC2OC(C)C(O)C(N(C)C)C2OC(C)=O)C(CC=O)CC(C)C(=O)C=CC(C)=CC1COC(=O)Cc1cc(OC)ccc1OC (stereo not drawn) [Compound 62] | minimal inhibitory concentration (MIC) | 3.12

# input For CCC1OC(=O)CC(O)C(C)C(OC2OC(C)C(O)C(N(C)C)C2O)C(CC=O)CC(C)C(=O)C=CC(C)=CC1COC(=O)C(C)(C)C (stereo not drawn) [Compound 68] , what is its reported minimal inhibitory concentration (MIC)?
# output 3.12

---

Test system: Staphylococcus epidermidis EPI1
Assay Info: MIC, standard agar-dilution assay (Table II)
Type: cell-based
Design: unit not given here
Measured minimal inhibitory concentration (MIC), listed per entry.

Compound | minimal inhibitory concentration (MIC)
CCC1OC(=O)CC(O)C(C)C(OC2OC(C)C(O)C(N(C)C)C2O)C(CC=O)CC(C)C(=O)C=CC(C)=CC1COC(=O)Cc1cc(OC)ccc1OC (stereo not shown) [Compound 63] | 0.25
CCC1OC(=O)CC(O)C(C)C(OC2OC(C)C(OC(C)=O)C(N(C)C)C2OC(C)=O)C(CC=O)CC(C)C(=O)C=CC(C)=CC1COC(C)=O (stereo not shown) [Compound 7, 2',4',23-Tri-O-acetyl-OMT] | 0.5
CCC1OC(=O)CC(O)C(C)C(OC2OC(C)C(O)C(N(C)C)C2O)C(CC=O)CC(C)C(=O)C=CC(C)=CC1COS(=O)(=O)c1ccc(C)cc1 (stereo not shown) [Compound 46] | 0.25
CCC(=O)OCC1C=C(C)C=CC(=O)C(C)CC(CC=O)C(OC2OC(C)C(O)C(N(C)C)C2O)C(C)C(O)CC(=O)OC1CC (stereo not shown) [Compound 14, 23-O-Propionyl-OMT] | 0.125
CCC1OC(=O)CC(O)C(C)C(OC2OC(C)C(O)C(N(C)C)C2OC(=O)Cc2ccccc2)C(CC=O)CC(C)C(=O)C=CC(C)=CC1COC(=O)Cc1ccccc1 (stereo not shown) [Compound 53, 2',23-Di-O-Phenylacetyl-OMT] | 0.25

# input Look up minimal inhibitory concentration (MIC) for this compound: CCC1OC(=O)CC(O)C(C)C(OC2OC(C)C(OC(C)=O)C(N(C)C)C2OC(C)=O)C(CC=O)CC(C)C(=O)C=CC(C)=CC1COS(=O)(=O)c1ccc(NC(C)=O)cc1 (stereo not shown) [Compound 47]
# output 1

# input Given CCC1OC(=O)CC(O)C(C)C(OC2OC(C)C(OC(C)=O)C(N(C)C)C2OC(C)=O)C(CC=O)CC(C)C(=O)C=CC(C)=CC1COC(=O)[C@H](O)c1ccccc1 (stereo partly drawn) [Compound 41, 2',4'-Di-O-acetyl-23-O-(D-mandeloyl)-OMT] , state its recorded minimal inhibitory concentration (MIC).
# output 0.25

# input Requested read-out: minimal inhibitory concentration (MIC). Entry: CCC1OC(=O)CC(O)C(C)C(OC2OC(C)C(O)C(N(C)C)C2O)C(CC=O)CC(C)C(=O)C=CC(C)=CC1COC(C)=O (stereo not shown) [Compound 13, 23-O-Acetyl-OMT]
# output 0.25

---

Test system: Staphylococcus aureus X400
Assay Info: MIC, standard agar-dilution assay (Table II)
Format: cell-based
Set-up: unit not given here
Condition Notes: Staphylococcus aureus X400, methicillin-resistant strain
Measured Parameter: minimal inhibitory concentration (MIC)
Give the figure by itself; no unit, no explanation.

Example entries and their recorded answers appear below.
Compound | minimal inhibitory concentration (MIC)
CCC1OC(=O)CC(O)C(C)C(OC2OC(C)C(O)C(N(C)C)C2O)C(CC=O)CC(C)C(=O)C=CC(C)=CC1COC(=O)c1ccc2ccccc2c1 (centres unmarked) | 0.5
CCC1OC(=O)CC(O)C(C)C(OC2OC(C)C(O)C(N(C)C)C2OC(C)=O)C(CC=O)CC(C)C(=O)C=CC(C)=CC1COC(C)=O (centres unmarked) | 0.5
CCC1OC(=O)CC(O)C(C)C(OC2OC(C)C(OC(C)=O)C(N(C)C)C2OC(C)=O)C(CC=O)CC(C)C(=O)C=CC(C)=CC1COS(C)(=O)=O (centres unmarked) | 2

# input Need minimal inhibitory concentration (MIC), item CCC1OC(=O)CC(O)C(C)C(OC2OC(C)C(O)C(N(C)C)C2O)C(CC=O)CC(C)C(=O)C=CC(C)=CC1COC(=O)Cc1cccnc1 (centres unmarked)
# output 0.25

# input Fill in: minimal inhibitory concentration (MIC) of CCC1OC(=O)CC(O)C(C)C(OC2OC(C)C(O)C(N(C)C)C2OC(C)=O)C(CC=O)CC(C)C(=O)C=CC(C)=CC1COC(=O)NCc1ccccc1 (centres unmarked) is ___
# output 0.25

# input minimal inhibitory concentration (MIC) for CCC1OC(=O)CC(O)C(C)C(OC2OC(C)C(O)C(N(C)C)C2O)C(CC=O)CC(C)C(=O)C=CC(C)=CC1COC(=O)CCCCc1ccccc1 (centres unmarked) ?
# output 0.25

# input Requested field: minimal inhibitory concentration (MIC). Item: CCC1OC(=O)CC(O)C(C)C(OC2OC(C)C(OC(C)=O)C(N(C)C)C2OC(C)=O)C(CC=O)CC(C)C(=O)C=CC(C)=CC1COC(=O)CC(C)C (centres unmarked)
# output 1

# input Endpoint output: minimal inhibitory concentration (MIC) of CCC1OC(=O)CC(O)C(C)C(OC2OC(C)C(O)C(N(C)C)C2OC(C)=O)C(CC=O)CC(C)C(=O)C=CC(C)=CC1COC(=O)C(Cl)(Cl)Cl (centres unmarked) . Value?
# output 2

# input Requested read-out: minimal inhibitory concentration (MIC). Entry: CCC1OC(=O)CC(O)C(C)C(OC2OC(C)C(O)C(N(C)C)C2OC(C)=O)C(CC=O)CC(C)C(=O)C=CC(C)=CC1COC(=O)Cc1ccc(Cl)cc1 (centres unmarked)
# output 0.25

# input Would you mind telling me what minimal inhibitory concentration (MIC) value was observed for CCC1OC(=O)CC(O)C(C)C(OC2OC(C)C(O)C(N(C)C)C2O)C(CC=O)CC(C)C(=O)C=CC(C)=CC1COC(=O)CSc1ccc(Cl)c(Cl)c1 (centres unmarked) ?
# output 0.25

# input // lookup minimal inhibitory concentration (MIC) for CCC1OC(=O)CC(O)C(C)C(OC2OC(C)C(O)C(N(C)C)C2O)C(CC=O)CC(C)C(=O)C=CC(C)=CC1COC(=O)CCCC(=O)OC (centres unmarked)
# output 0.25
